# Assay Text: Colorimetric alkylation rate constant assay with TNB^2− as non-specific thiol
# Type: physicochemical
# Cond: Replicate 2, 2168 sec, [B]0=250; in µM
Measure Name: remaining [B]
Answer with a number only.

Some molecules with recorded remaining [B]:
Task: Entry under review: "O=C(CCl)Nc1ccc(F)cc1" . Reported remaining [B]?
Result: 242.036

Task: Look at this molecule and give its reported remaining [B]. COc1cc2sc(C(=O)CCC(=O)O)cc2cc1NC(=O)CCl [Compound E2]
Result: 241.098

Task: Data request, read-out remaining [B], for C=CS(=O)(=O)Nc1cc2cc(C(=O)CCC(=O)O)sc2cc1OC [Compound E1]
Result: 244.191

Task: Consider the molecule "O=C(CCl)Nc1ccccc1C(=O)O" and give its measured remaining [B].
Result: 244.827

Task: Using the record for "O=C(CCl)N1CCOCC1" , report its remaining [B].
Result: 236.019

Next:
Task: Which remaining [B] is reported for this molecule? "O=C(CCl)Nc1ccccc1"
Result: 242.452

* * *

# Assay Text: Colorimetric alkylation rate constant assay with TNB^2− as non-specific thiol
# Assay type: physicochemical
# Cond: Replicate 3, 2710 sec, [B]0=250; in µM
remaining [B] reference
Form: value (number only, do not type unit).

Before answering, review these 2 worked examples.
Task: Consider the compound shown here: "O=C(CCl)Nc1ccc(F)cc1" What is its recorded remaining [B]?
Result: 241.35

Task: Request the reported remaining [B] associated with C=CS(=O)(=O)Nc1cc2cc(C(=O)CCC(=O)O)sc2cc1OC [Compound E1]
Result: 243.505

Further cases:
Task: Endpoint output: remaining [B] of COc1cc2sc(C(=O)CCC(=O)O)cc2cc1NC(=O)CCl [Compound E2] . Value?
Result: 239.164

Task: Would you kindly share the measured remaining [B] for "O=C(CCl)N1CCOCC1" ?
Result: 235.51

Task: Look up remaining [B]: "O=C(CCl)Nc1ccccc1"
Result: 241.653

Task: # input compound: "O=C(CCl)Nc1ccccc1C(=O)O" ; wanted: its remaining [B]
Result: 244.62

* * *

remaining [B] reference
# Assay Text: Colorimetric alkylation rate constant assay with TNB^2− as non-specific thiol
# Format: physicochemical
# Cond: Replicate 3, 2530 sec, [B]0=250; in µM
Please give only the number in your answer, with no unit.

Task: # input molecule: O=C(CCl)Nc1ccccc1C(=O)O [Compound C5] ; wanted: its remaining [B]
Result: 244.809

Task: Reported remaining [B] for O=C(CCl)Nc1ccccc1 [Compound C2] : what is it?
Result: 241.917

Further cases:
Task: // returns reported remaining [B] for input O=C(CCl)Nc1ccc(F)cc1 [Compound C3]
Result: 241.627

Task: So what's the measured remaining [B] for this one? O=C(CCl)N1CCOCC1 [Compound C4]
Result: 236.215

Task: Would you mind telling me what remaining [B] value was observed for C=CS(=O)(=O)Nc1cc2cc(C(=O)CCC(=O)O)sc2cc1OC [Compound E1] ?
Result: 243.744

Task: Could you tell me which remaining [B] is on file for COc1cc2sc(C(=O)CCC(=O)O)cc2cc1NC(=O)CCl [Compound E2] ?
Result: 239.492

* * *

# System: THP-1 Lucia ISG cells (interferon pathway)
# Assay Text: Potency test of purified dimers on THP-1 Lucia ISG reporter cells
# Assay type: cell-based, human
# Cond: Homo sapiens, THP1-Lucia ISG, 24 h, Concentration 0.508053 nM; three replicates; read-out: Processed reporter response per replicate (reading relative to DMSO)
Readings of fold induction at 0.000508053 µM for the listed molecules
Give the figure by itself; no unit, no explanation.

Solved entries:
Task: Dear colleague, I am looking for the recorded fold induction at 0.000508053 µM of the following molecule: "COc1cc2sc(C(=O)CCC(=O)O)cc2cc1CCCSc1cc2cc(C(=O)CCC(=O)O)sc2cc1OC"
Result: 1.37

Task: // fold induction at 0.000508053 µM lookup, key: COc1cc2sc(C(=O)CCC(=O)O)cc2cc1CSc1cc2cc(C(=O)CCC(=O)O)sc2cc1OC [Compound D2]
Result: 0.9

Task: So what does the record say about fold induction at 0.000508053 µM for "COc1cc2sc(C(=O)CCC(=O)O)cc2cc1SCCCSc1cc2cc(C(=O)CCC(=O)O)sc2cc1OC" ?
Result: 0.858

---
Task: # lookup: fold induction at 0.000508053 µM of COc1cc2sc(C(=O)CCC(=O)O)cc2cc1Sc1cc2cc(C(=O)CCC(=O)O)sc2cc1OC [Compound D1]
Result: 1.85
